# Procedure Text: Plasma protein binding in human
# Format: ADME, cell-free
# Experimental Conditions: read-out: PPB (converted)
Reported Endpoint: fraction unbound

1. CCCS(=O)(=O)N1CCN(C2(CNC(=O)c3c(F)cccc3F)CCC(F)(F)CC2)CC1
0.13

----------
# Procedure Text: Volume of distribution at steady state in rat at 2 mg/kg, iv and 10 mg/kg, po
# Type: ADME, organism-based
# Experimental Conditions: in vivo, read-out: Vdss
Reported Endpoint: Vd (L/kg)

1) CCCS(=O)(=O)N1CCN(C2(CNC(=O)c3c(F)cccc3F)CCC(F)(F)CC2)CC1
3.26

----------
# Procedure Text: Metabolic stability in human liver microsomes assessed as compound remaining at 10 uM after 60 mins
# Type: ADME, Microsome
# Experimental Conditions: read-out: Stability
Hi! Just check whether remaining at 1 h, 10 µM is below 5%. Below gives T, equal or above gives F.

1) CCCS(=O)(=O)N1CCN(C2(CNC(=O)c3c(OC)cc(C(F)(F)F)cc3C(F)(F)F)CCCCC2)CC1
F
2) CCCS(=O)(=O)N1CCN(C2(CNC(=O)c3ccc(Cl)cc3Cl)CCOCC2)CC1
F
3) CCCS(=O)(=O)N1CCN(C2(CNC(=O)c3c(N)cccc3Cl)CCCCC2)CC1
F
4) CCCS(=O)(=O)N1CCN(C2(CNC(=O)c3ccc(OC)cc3F)CCCCC2)CC1
T
